TESTED TARGET: hERG (Homo sapiens (Human))
Sequence (Q12809 whole entry): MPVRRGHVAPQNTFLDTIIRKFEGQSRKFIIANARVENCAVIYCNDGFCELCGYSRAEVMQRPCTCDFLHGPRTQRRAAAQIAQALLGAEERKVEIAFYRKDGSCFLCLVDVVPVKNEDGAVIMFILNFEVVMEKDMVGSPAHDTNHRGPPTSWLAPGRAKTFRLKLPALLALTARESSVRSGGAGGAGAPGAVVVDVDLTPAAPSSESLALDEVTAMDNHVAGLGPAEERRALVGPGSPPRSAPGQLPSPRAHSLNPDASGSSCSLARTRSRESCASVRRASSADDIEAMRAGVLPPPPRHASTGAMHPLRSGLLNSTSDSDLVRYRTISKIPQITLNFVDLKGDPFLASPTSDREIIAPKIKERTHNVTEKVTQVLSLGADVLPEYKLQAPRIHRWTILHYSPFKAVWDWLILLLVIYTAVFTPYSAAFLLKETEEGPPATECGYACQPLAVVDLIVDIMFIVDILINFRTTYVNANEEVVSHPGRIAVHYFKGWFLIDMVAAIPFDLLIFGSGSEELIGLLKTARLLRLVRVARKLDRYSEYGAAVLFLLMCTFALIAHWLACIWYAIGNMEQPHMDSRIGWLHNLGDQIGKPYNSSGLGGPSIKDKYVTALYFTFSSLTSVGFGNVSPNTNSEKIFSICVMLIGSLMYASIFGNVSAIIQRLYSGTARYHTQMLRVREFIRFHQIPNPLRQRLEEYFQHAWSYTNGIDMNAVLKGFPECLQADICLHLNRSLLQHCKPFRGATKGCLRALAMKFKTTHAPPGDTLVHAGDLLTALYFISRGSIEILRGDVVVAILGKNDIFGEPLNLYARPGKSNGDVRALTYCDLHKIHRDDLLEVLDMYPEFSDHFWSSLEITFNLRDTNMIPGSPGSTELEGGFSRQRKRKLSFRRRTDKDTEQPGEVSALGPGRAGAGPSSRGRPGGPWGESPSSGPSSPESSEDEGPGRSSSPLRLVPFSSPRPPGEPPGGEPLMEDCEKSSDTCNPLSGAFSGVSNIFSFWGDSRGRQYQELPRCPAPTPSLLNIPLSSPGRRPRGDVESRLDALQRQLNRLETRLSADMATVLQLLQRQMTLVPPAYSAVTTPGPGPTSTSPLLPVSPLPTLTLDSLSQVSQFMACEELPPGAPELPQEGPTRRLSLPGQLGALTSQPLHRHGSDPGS
ASSAY COMMENT: Effect on membrane potassium current IKr in hERG-transfected HEK293 cells, Protocol 2 (SyncroPatch 384PE)
TEST CONDITIONS: Protocol 2, hERG-transfected HEK293 cells
pIC50: −log10 of the molar value. Structures can show the parent of a compound that is named as a salt.
Listing of recorded pIC50 by entry.

// below: answered molecules
MOLECULE | pIC50
CCN(C(=O)c1cc(F)ccc1Oc1nncnc1N1CCC2(C1)CN([C@H](CCCNCC(OC)OC)C(C)C)C2)C(C)C.O=C(O)/C=C/C(=O)O [Compound 104, fumarate] | < 4.52
O=C(O)/C=C/C(=O)O.[2H]C([2H])(COC)N(C)CCC[C@H](C(C)C)N1CC2(CCN(c3ncnnc3Oc3ccc(F)cc3C(=O)N(CC)C(C)C)C2)C1 | < 4.52
CCN(C(=O)c1cc(F)ccc1Oc1nncnc1N1CCC2(C1)CN([C@H](CCCN(C)CCC(=O)N(C)C)C(C)C)C2)C(C)C [Compound 246, formate] | < 4.52

What does the data say about its pIC50? Entry: CC(C)[C@H](CCCN(C)CCC(=O)N(C)C)N1CC2(CCN(c3ncnnc3Oc3ccc(F)cc3C(=O)N(C(C)C)C(C)C)C2)C1 (single isomer, unassigned)
< 4.52

What does the data say about its pIC50? Entry: `CCN(C(=O)c1cc(F)ccc1Oc1nncnc1N1CCC2(C1)CN([C@H](CCCN[C@H](C)COC)C(C)C)C2)C(C)C.O=C(O)/C=C/C(=O)O`
< 4.52

What does the data say about its pIC50? Entry: CCN(C(=O)c1cc(F)ccc1Oc1nncnc1N1CCC2(C1)CN([C@H](CCCN(C)CCNC(C)=O)C(C)C)C2)C(C)C.O=C(O)/C=C/C(=O)O [Compound 245, fumarate]
< 4.52

What does the data say about its pIC50? Entry: COCCNCCC[C@H](C(C)C)N1CC2(CCN(c3ncnnc3Oc3ccc(F)cc3C(=O)N(C(C)C)C(C)C)C2)C1 (single isomer, unassigned)
< 4.52

Data origin: patent US12473295B2
